Reference source for all entries: the supplement of paper PMC5998384

- Tested on: HeLa Kyoto;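 note: HeLa Kyoto cells synchronized by double thymidine or nocodazole block, proteins quantified by TMT10plex mass spectrometry, three independent biological replicates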
- ASSAY OVERVIEW: melting temperature (median over replicates), in situ; higher = more thermally stable
- CONDITION LABEL: cell cycle stage: mitosis
MEASUREMENT TYPE: melting temperature (°C)
Numbers only, in °C.

The cases that follow already have their melting temperature on record.
>  <RESIDUE CODES>
MFSRAGVAGLSAWTLQPQWIQVRNMATLKDITRRLKSIKNIQKITKSMKMVAAAKYARAERELKPARIYGLGSLALYEKADIKGPEDKKKHLLIGVSSDRGLCGAIHSSIAKQMKSEVATLTAAGKEVMLVGIGDKIRGILYRTHSDQFLVAFKEVGRKPPTFGDASVIALELLNSGYEFDEGSIIFNKFRSVISYKTEEKPIFSLNTVASADSMSIYDDIDADVLQNYQEYNLANIIYYSLKESTTSEQSARMTAMDNASKNASEMIDKLTLTFNRTRQAVITKELIEIISGAAALD [ATP5C1]

>  <UNIT SPEC>
°C

>  <melting temperature>
56.5

$$$$
>  <RESIDUE CODES>
MAMNYNAKDEVDGGPPCAPGGTAKTRRPDNTAFKQQRLPAWQPILTAGTVLPIFFIIGLIFIPIGIGIFVTSNNIREIEIDYTGTEPSSPCNKCLSPDVTPCFCTINFTLEKSFEGNVFMYYGLSNFYQNHRRYVKSRDDSQLNGDSSALLNPSKECEPYRRNEDKPIAPCGAIANSMFNDTLELFLIGNDSYPIPIALKKKGIAWWTDKNVKFRNPPGGDNLEERFKGTTKPVNWLKPVYMLDSDPDNNGFINEDFIVWMRTAALPTFRKLYRLIERKSDLHPTLPAGRYSLNVTYNYPVHYFDGRKRMILSTISWMGGKNPFLGIAYIAVGSISFLLGVVLLVINHKYRNSSNTADITI [TMEM30A]

>  <UNIT SPEC>
°C

>  <melting temperature>
54.6

$$$$

Here's the next entry for you.
Input MDKVCAVFGGSRGIGRAVAQLMARKGYRLAVIARNLEGAKAAAGDLGGDHLAFSCDVAKEHDVQNTFEELEKHLGRVNFLVNAAGINRDGLLVRTKTEDMVSQLHTNLLGSMLTCKAAMRTMIQQQGGSIVNVGSIVGLKGNSGQSVYSASKGGLVGFSRALAKEVARKKIRVNVVAPGFVHTDMTKDLKEEHLKKNIPLGRFGETIEVAHAVVFLLESPYITGHVLVVDGGLQLIL [CBR4] . Output melting temperature: 55.2
